- Target Desc: Dopamine D2 receptor (Rattus norvegicus, UniProt P61169)
- Sequence (P61169 whole entry): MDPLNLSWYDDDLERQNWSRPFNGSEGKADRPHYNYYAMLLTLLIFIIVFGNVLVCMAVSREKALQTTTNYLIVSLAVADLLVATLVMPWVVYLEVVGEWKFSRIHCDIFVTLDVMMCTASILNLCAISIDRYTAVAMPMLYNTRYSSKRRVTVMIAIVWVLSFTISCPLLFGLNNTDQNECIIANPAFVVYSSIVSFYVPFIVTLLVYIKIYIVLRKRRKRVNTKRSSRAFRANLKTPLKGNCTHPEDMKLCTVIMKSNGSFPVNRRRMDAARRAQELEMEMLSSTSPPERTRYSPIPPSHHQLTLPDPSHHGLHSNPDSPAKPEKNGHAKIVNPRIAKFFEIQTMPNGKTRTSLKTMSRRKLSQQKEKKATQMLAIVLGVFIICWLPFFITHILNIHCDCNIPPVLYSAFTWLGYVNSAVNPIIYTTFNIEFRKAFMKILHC
- Assay: Dopamine D2 receptor binding assay ([3H]-raclopride)
- Condition Set: Dopamine D2 receptor binding test, rat corpus striatum membrane, Ki calculated from IC50 by Cheng-Prussoff formula
Exercise: state measured Ki for each of the molecules provided.
Numeric only. Scale: nM

**Q:** For the molecule shown here, CCN(CC)CCc1ccc(OCCCN2CCN(c3cccc4sccc34)CC2)cc1 , give the reported Ki.
**A:** 0.4

**Q:** I would be grateful if you could share the reported Ki for O=c1[nH]cnc2ccc(OCCCN3CCN(c4cccc5sccc45)CC3)cc12 .
**A:** 2.4

**Q:** Recorded Ki for COc1cc(N2CCCC2)cc(C)c1OCCCN1CCN(c2cccc3sccc23)CC1 , please?
**A:** 1.2

**Q:** Name the recorded Ki for COc1cc(N2CCN(C(C)=O)CC2)cc(C)c1OCCCN1CCN(c2cccc3sccc23)CC1 .
**A:** 0.3
